System: MDA-MB-435
Outcome (select one): active, inactive

- COC(=O)/C=C/c1cc(OC)c2c(c1)C(C(=O)OC)C(c1ccc(OC)c(OC)c1)O2 (stereo not given): inactive
- COC(=O)c1c2c(c(C)[n+]([O-])c1C)C(=O)C=C(NCc1ccc(Cl)cc1)C2=O: active
- FC(F)(F)c1ccc2c(c1)N(CCCN1CCN(C3CC3)CC1)c1ccccc1S2: inactive
- Cc1sc2ncnc(Sc3nc4ccccc4[nH]3)c2c1C: inactive

# evaluate next
Task item: Please share the test call associated with COc1ccc(NC2=C(Sc3nc(C)cc(C)n3)C(=O)N(Cc3ccccc3)C2=O)cc1Cl .
Reply: inactive

----------
Tested on: SK-MEL-28 melanoma
Assay: NCI tumour cell line growth inhibition, 48 h
reported-metric: TGI

See these solved cases before continuing.
• CCOC(=O)CNC(=O)C(CSC(=O)N(O)c1ccc(Br)cc1)NC(=O)CCC(N)C(=O)OCC (stereo not given) = > 50 µM
• N#Cc1cnn2c1n[n+]([O-])c1ccc(Cl)cc12 = 27.7 µM
• COc1ncnc2c(NC3OC(CO)C(O)C3O)ncnc12 (stereo not given) = > 100 µM
• CC1CN=C(NCc2ccccc2)S1 (stereo not given) = > 100 µM

Task item: Report TGI for O=c1cc(-c2ccc(O)c(O)c2)oc2cc(OC3OC(CO)C(O)C(O)C3O)cc(O)c12 (stereo not given)
Reply: > 100 µM

----------
System: A498 renal
Test: NCI tumour cell line growth inhibition, 48 h
reported-metric: TGI

See these solved cases before continuing.
• O=c1cc(-c2ccc(O)c(O)c2)oc2cc(OC3OC(CO)C(O)C(O)C3O)cc(O)c12 (stereo unspecified) = > 100 µM
• O=c1c2cc(Br)ccc2oc2ccc(Br)cc12 = > 100 µM
• C/C(=N\NC(=S)N(C)C)c1ncc[nH]1 = 16.7 µM
• CSc1nc(=S)[nH]c2n[nH]c(C)c12 = > 100 µM
• Cc1ccc2c(ccc3c[n+]4ccccc4c(C)c32)c1 = > 100 µM

Turning now to a further record.
Task item: Report TGI for Oc1ccccc1C=Nc1ccc(Oc2ccc(Cl)cc2)c(Cl)c1
Reply: 33.7 µM

----------
# TGI per entry
System: NCI-H23 lung
Assay: NCI tumour cell line growth inhibition, 48 h

- O=c1c2cc(I)ccc2nc(-c2cccs2)n1Nc1ccccc1: 91 µM
- COc1ccc2c(c1)c(Cc1c(C)n(C)c3ccc(OC)cc13)c(C)n2C: > 100 µM
- CCOc1ccc(C2c3[nH]c4ccccc4c3CCN2C(=O)c2cccs2)cc1 (stereo not given): > 100 µM
- Cc1c(C(=O)/C=C/c2ccc(O)cc2)nnn1-c1ccnc2c(C(F)(F)F)cccc12: > 100 µM

Turning now to a further record.
Task item: Report TGI for O=C(Nc1ccccc1Cl)c1cnc2ccc(C3CCNCC3)cn12
Reply: > 100 µM

----------
Tested on: M14 melanoma
Assay: NCI tumour cell line growth inhibition, 48 h
# GI50 per entry

* Cc1sc2ncnc(Sc3nc4ccccc4[nH]3)c2c1C | 41.1 µM
* CCN(CC)CCC(=O)Nc1cccc2c1C(=O)c1c(c(O)c3ccccc3c1O)C2=O | 35.4 µM
* O=C(Oc1ccccc1)c1cc(O)c(O)c(O)c1 | 11.9 µM
* FC(F)(F)c1ccc2c(c1)N(CCCN1CCN(C3CC3)CC1)c1ccccc1S2 | 15.1 µM
* COc1cc(C)cc2c1OC(c1ccccc1)CC2=O (stereo unspecified) | > 100 µM

Turning now to a further record.
Task item: Report GI50 for COc1ccc(Cl)cc1N1C(=O)C(Cl)=C(Nc2cccc(O)c2)C1=O
Reply: 14 µM
